Every entry's value here was drawn from PubChem BioAssay (NCI).

Field: growth. Provide a value for each of the compounds that follow.
System: A549/ATCC NSCLC
protocol notes: NCI-60 one-dose screen, 48 h (100 = growth as untreated, 0 = no growth, -100 = all killed)
test conditions: 10 µM unless noted
About 83,000 compounds went through this panel and 20% of them were active in at least one assay; those are over-represented in the sample as a whole.
Dear colleague, please return just the value in %, with no unit written.

## Task Report measured growth; entry is Cc1nn(CC(=O)O)c2c1C(=O)CC(C)(C)C2
## Result 102

## Task Please indicate growth recorded for CCN1CCN(c2ccc(Nc3ncc4ccc5ncn(C(C)C)c5c4n3)nc2)CC1
## Result 9.87

## Task Give me measured growth, please, for this compound: COc1ccc(-c2nn(-c3ccc(NC(=O)c4ccc(Cl)c(Cl)c4)cc3)cc2-c2ccncc2)cc1Cl
## Result 42.7

## Task Given O=c1[nH]c(-c2ccncc2)nc2sc3c(c12)CCCCCC3 , respond with its growth.
## Result 43.7

## Task Please give measured growth of the following entry: O=c1[nH]c(=S)c2c(n1CCCO)CCC2
## Result 100

## Task // Input: COc1ncc(F)c(OC)n1 . Output its growth only.
## Result 99.8

## Task Look up growth of CCN1CCN(c2nc3ccccc3c3c(=O)c4cc(F)ccc4sc23)CC1 and report it.
## Result 58.4

## Task Find the measured growth of CN1CCN(c2ccc3nc(-c4ccc5nc(-c6ccc(C(F)(F)F)cc6)[nH]c5c4)[nH]c3c2)CC1 and report it.
## Result 89.8

## Task Give growth for CC1SC(c2cccc(Oc3ccccc3)c2)N(CCc2cccs2)C1=O (stereo unspecified)
## Result -9.36

## Task In one line, give reported growth of the entry O=C1CN2CCC1C/C2=C\c1ccnc2c(Cl)cccc12 (stereo unspecified) .
## Result 107

## Task Name the recorded growth of the item NS(=O)(=O)c1cc(Br)c2c(c1)S(=O)(=O)NCN2 in your answer.
## Result 101

## Task Name the recorded growth of the compound listed here: COc1ccc(/C=C2\CN(Cc3cn(CCCNc4ccnc5cc(Cl)ccc45)nn3)C/C(=C\c3ccc(OC)cc3)C2=O)cc1
## Result 65.7

## Task Annotate the compound Cc1ccc(C2SCC(=O)N2NC(=O)c2[nH]c3ccc(F)cc3c2-c2ccccc2)cc1 (stereo unspecified) with its measured growth.
## Result 74.1

## Task Supply measured growth of CCN1C(=O)C2(Nc3ccccc3S2)c2cc(C)ccc21 (stereo unspecified) in your reply.
## Result 95.7

## Task Retrieve growth measured for O=C(Nc1ccccc1O)c1ccc(NS(=O)(=O)c2cccc3cccnc23)cc1 and print it.
## Result 51.1

## Task Tell me growth reported for COc1c(O)c2c3c(c1OC)-c1ccccc1CC3N(S(=O)(=O)c1ccc(C)cc1)CC2 (stereo unspecified)
## Result 44.1

## Task Using the record for COc1ccc(-c2cc(=O)oc3c4c(ccc23)OCN(Cc2ccc(F)cc2)C4)cc1 , state its measured growth.
## Result 69.6

## Task Provide growth value for the following compound: COc1ccc(CSc2nc3cc(OC)c(OC)cc3c(=O)n2-c2ccc(Cl)cc2)cc1
## Result 103

## Task Supply recorded growth for O=C(CCCCCCC(=O)Nc1ccc2c(c1)/C(=C/c1ccc[nH]1)C(=O)N2)NO here.
## Result 34.9

## Task Supply reported growth belonging to this compound: O=C1C(Br)=C(c2ccccc2)C(=O)C(Br)=C1c1ccccc1
## Result 87.6

## Task Specify measured growth for CN1CCN(C(=O)OCCOCCOC(=O)N2CCN(C)CC2)CC1 .
## Result 104
